The measurements presented in this section are drawn from ChEMBL document CHEMBL2331485.

Property: bioavailability; scope: individual molecules
# assay-protocol: Oral bioavailability in mouse at 5 mg/kg
# Assay type: ADME, organism-based
# condition-summary: in vivo
Value expressed in %; do not type the unit.

Some solved cases for reference:
>  <smiles-record>
CCNC(=O)Nc1ccc(-c2nc3c(c(N4CCOC[C@@H]4C)n2)[C@H]2CC[C@@H](C3)N2C)cc1

>  <bioavailability, %>
114

$$$$
>  <smiles-record>
CCNC(=O)Nc1ccc(-c2nc3c(c(N4CCOC[C@@H]4C)n2)C[C@@H]2CC[C@H]3N2C2COC2)cc1

>  <bioavailability, %>
82

$$$$

# context switch: different molecule, same bioavailability
Q. State its bioavailability for this molecule: `CCNC(=O)Nc1ccc(-c2nc3c(c(N4CCOC[C@@H]4C)n2)C[C@@H]2CC[C@H]3N2S(C)(=O)=O)cc1`
A. 53
